# ASSAY_DETAILS: in vitro
# EXPERIMENTAL_CONDITIONS: human, hela cells, % viability
MEASURED_PROPERTY: viability at 28.5 h, 10 µM (%)
One number for each entry, in %.

COMPOUND	VALUE_UNIT	viability at 28.5 h, 10 µM
O=C(O)c1cc2c(s1)CN(C1CCCCC1)C2 [CBK286885]	%	96.2
O=C(NC1CCCCC1)[C@H]1C=CCN1C(=O)c1ccc(F)cc1 [CBK282324]	%	93.9
Cc1ccccc1NS(=O)(=O)c1cc(CN2C[C@@H](C)NC[C@@H]2C)c2occc2c1 [CBK103579T]	%	102
O=C(NCCCn1ccnc1)c1cc(-c2ccccc2Cl)nc2ccccc12 [CBK262656]	%	95.2
CN(C)CCn1nc(-c2cccc(-n3cccc3)c2)oc1=O [CBK284002]	%	94.2

For each of the items listed, what is its viability at 28.5 h, 10 µM?
1. O=C(CN1CCCCC1)NN(Cc1ccccc1)c1ccccc1 [CBK261521G]
2. Cc1noc2nc(-c3ccco3)cc(C(=O)NCc3nc4ccccc4[nH]3)c12 [CBK295608]
3. Cc1ccc(-c2ccc(N3CCN(C(=O)c4ccco4)CC3)nc2)cc1C [CBK037775]
4. O=C(NC1CCN(Cc2c(F)cccc2Cl)CC1)c1cccs1 [CBK057035]

Reply |
1: 103; 2: 93.5; 3: 106; 4: 100

----------
# ASSAY_DETAILS: in vitro
# EXPERIMENTAL_CONDITIONS: human, hela cells, % viability
Answer each item with its documented viability at 28.5 h, 10 µM.
Numbers only, in %.

COMPOUND	viability at 28.5 h, 10 µM (%)
Cc1nccn1CCNC(=O)c1ccccc1Cn1cccn1 [CBK281979]	101

Record viability at 28.5 h, 10 µM per entry; entries follow.
1. O=C(NC1CCCCC1)c1cc(NC(=O)c2ccccc2C(=O)O)ccc1Cl [CBK287062]
2. CCOC(=O)CSc1nc2ccccc2nc1NC(C)C [CBK107166]

Reply |
1: 96.3; 2: 101

For the 3 compounds below, give their viability at 28.5 h, 10 µM values.
1. Cc1nc2c(c(=O)[nH]1)CC[C@@H]1CN(C(=O)C3CCCCC3)C[C@H]21 [CBK284407]
2. Fc1ccc(C2NC(S)=NC3=C2N2CCC3CC2)cc1 (stereo not shown) [CBK288390]
3. CSc1ccc(-c2cnc(N)c3ncccc23)cc1 [CBK067584]

Reply |
[102, 95.4, 68.4]

Provide viability at 28.5 h, 10 µM for all items below, preserving their order.
1. COc1ccc(NC(=O)CC2NC(=O)NC2=O)cc1 (stereo not shown) [CBK267279]
2. CC(=O)Nc1ccc(SC(C)c2nsc(NS(=O)(=O)c3ccc(-c4ccccc4)cc3)n2)cc1 (stereo not shown) [CBK047508]
3. O=C1COc2ccccc2C/C=C/CC2(CCN(C(=O)c3cncc(O)c3)CC2)C(=O)NCCN1 [CBK291989]
4. Cc1ccc2c(c1)C(C[C@H]1CN(C(=O)c3ccco3)CC[C@H]1CC(=O)O)=NCC2 [CBK289162]
5. O=C(O)c1ccc(/C=N/Nc2cccc3cccnc23)cc1 [CBK262372]
6. COc1ccc(OC)c(-n2c(=O)[nH]c3ccccc3c2=O)c1 [CBK287825]
7. O=S(=O)(c1cccc(F)c1)N1CCC(Cc2ccccc2)CC1 [CBK044828]

Reply |
86.5
91.5
98.3
79.1
74.4
110
102

Dear colleague, could you send me viability at 28.5 h, 10 µM for each of the items below? Thanks.
1. O=C(Cc1c[nH]c2ccccc12)N1CCC2(CCCN(Cc3cc(=O)[nH]c(=O)[nH]3)C2)C1 (stereo not shown) [CBK132049]
2. O=C(CSCc1cccc2ccccc12)Nc1c[nH]c(=O)[nH]c1=O [CBK268500]

Reply |
[102, 103]

Please report viability at 28.5 h, 10 µM for every entry that follows.
1. Cc1ccc(Cl)c(OCc2nnc(SCC(=O)O)n2N)c1 [CBK268992]
2. N=c1c2c(-c3ccccc3)c(-c3ccccc3)n(Cc3ccccc3)c2ncn1CCN1CCOCC1 [CBK268537]
3. Cc1ccc(C(C)C)c(OCC(=O)N2CCN(Cc3nc4cc([N+](=O)[O-])ccc4n3C)CC2)c1 [CBK268519]
4. CCOC(=O)CC(C)NS(=O)(=O)c1ccc(OC(F)(F)F)cc1 (stereo not shown) [CBK044954]

Reply |
105
92
106
104
